# experiment_notes: Cmax in Sprague-Dawley rat at 10 mg/kg, po
# Assay type: ADME, organism-based
# Design: dose 10 mg/kg, route oral
# condition_notes: in vivo
value_type: Cmax (ng/mL)
Numbers only; they are read as ng/mL.

Sample "CC(C)C(=O)O[C@@H]1[C@@H](CO)O[C@@H](n2ccc(N)nc2=O)C12CC2" ; Cmax observed: 184

Reported Cmax for "Nc1ccn([C@@H]2O[C@H](CO)[C@@H](O)C23CC3)c(=O)n1" was 85

----------
# experiment_notes: Tmax in Beagle dog at 75 mg/kg, po
# Type: ADME, organism-based, Canis lupus familiaris
# Design: dose 75 mg/kg, route oral
# condition_notes: in vivo
value_type: Tmax (h)
Report as a plain number; the unit h is understood.

Tmax reported for this compound "CC(C)C(=O)OC[C@H]1O[C@@H](n2ccc(N)nc2=O)C2(CC2)[C@@H]1OC(=O)C(C)C" : 1.3
